test system: BXPC3 cells; test: MTT assay of BXPC3 cultures, single 50 μM dose; assay type: cell-based, human; design: unit not given here; settings: BXPC3, 50 μM, 120 hours (5 days), average minus blank
Readout Type: MTT assay result, av-blank

{"Molecule": "CC(C)=CCC/C(C)=C/CC/C(C)=C/CC[C@]1(C)CCc2cc(O)cc(C)c2O1 [T3 delta, delta tocotrienol]", "MTT assay result, av-blank": 0.465}
{"Molecule": "O=C(O)CCC(=O)O [SA, succinic acid]", "MTT assay result, av-blank": 0.428}
{"Molecule": "CC(C)=CCC/C(C)=C/CC/C(C)=C/CC/C(C)=C/CO [GG, geranylgeraniol]", "MTT assay result, av-blank": 0.610}
{"Molecule": "CC(C)=CCC/C(C)=C/CC/C(C)=C/CC[C@]1(C)CCc2cc(O)c(C)c(C)c2O1 [T3 gamma, gamma tocotrienol]", "MTT assay result, av-blank": 0.377}
{"Molecule": "Cc1c(C)c2c(c(C)c1OC(=O)CCC(=O)O)CC[C@@](C)(CCC[C@H](C)CCC[C@H](C)CCCC(C)C)O2 [TS, tocopherol succinate]", "MTT assay result, av-blank": 0.097}

Inquiry: Quick one: give measured MTT assay result, av-blank for CC(C)=CCC/C(C)=C/CC/C(C)=C/CC[C@]1(C)CCc2c(C)c(O)cc(C)c2O1 [T3 beta, beta tocotrienol]
Reply text: 0.417

Inquiry: Quick one: give measured MTT assay result, av-blank for Cc1c(O)cc2c(c1C)O[C@](C)(CCC[C@H](C)CCC[C@H](C)CCCC(C)C)CC2 [T gamma]
Reply text: 0.595

Inquiry: Quick one: give measured MTT assay result, av-blank for Cc1c(C)c2c(c(C)c1O)CC[C@@](C)(CCC[C@H](C)CCC[C@H](C)CCCC(C)C)O2 [T alpha, alpha tocopherol]
Reply text: 0.611
